# Test system: SK-MEL-2 melanoma
# ASSAY_COMMENT: NCI tumour cell line growth inhibition, 48 h; in the data active = GI50 below about 0.43 µM; inactive = the rest
Write down the outcome that applies. Available outcomes: T = active, F = inactive

Please review the entries below; each comes with its answer.
COc1ccc2c(CN3CCC[C@H]3C(=O)O)cc3cc4c(cc3c2c1)OCO4	F
Nc1ccc2c3c(n(CCCCl)c(=O)c2c1)-c1cc2c(cc1C3=O)OCO2	F
COc1cc2c(cc1OCCCCCCN1CCN(c3ncnc4ccccc34)CC1)N=CC1CCCN1C2=O (stereo not given)	T
CCOc1ccc(Nc2nc(-c3ccc4c(c3)NC(=O)CO4)cs2)cc1	F

Next:
Status in this test for COc1cc2c(Oc3ccc4[nH]c(C)cc4c3F)ccnc2cc1OCC1(N)CC1 ?
F

###

# Tested on: PC-3 prostate
# ASSAY_COMMENT: NCI tumour cell line growth inhibition, 48 h
METRIC: TGI

Field: example entries. Status: answers known.
COc1c(Cl)c2c(c(OC)c1OC)-c1ccc(SC)c(=O)cc1[C@@H](NC(=O)OCC(F)(F)F)CC2	> 72.8 µM
c1cc(OCCN2CCCCC2)ccc1CNc1ccc2nc(CCC3CCCCC3)[nH]c2c1	3.71 µM

Hello, please tell me recorded TGI for this one: COC(=O)c1ccccc1/C=C1\Cc2cc(C)cc(C)c2C1=O
> 100 µM

Read the entry O=C(C[n+]1ccccc1)N=N/C(C(=O)Nc1c(Cl)c(O)c2ccccc2c1O)=C1/C(=O)Oc2cc(O)ccc2C1=O and write its reported TGI.
33 µM

###

# Tested on: HOP-18 NSCLC
# ASSAY_COMMENT: NCI tumour cell line growth inhibition, 48 h
METRIC: TGI

Past entries and their recorded results:
O=C1c2ccccc2C2(O)NC(=S)N(c3ccccc3)C12O (stereo unspecified)	> 100 µM
O=C(c1ccco1)N(C(=S)N1CCN(c2ccccn2)CC1)C1CCCCC1	> 100 µM
NC1CCCCC1N.O=S(=O)([O-])CCCN1CCOCC1.O=S(=O)([O-])CCCN1CCOCC1.[Pt+4]	> 89.2 µM
CCN(CC)CCNC(=O)c1nn(C)c(=S)[nH]c1=S	> 100 µM
CC(=O)/C(=C\C1=CCCO1)C(=O)Nc1ccccc1C	> 100 µM

Now examine the next entry.
Find the measured TGI of CC12CCC(C(=O)N3CC=CCC3)(OC1=O)C2(C)C (stereo unspecified) and report it.
> 100 µM

###

Measured TGI by item
# Tested on: HT29 colon
# ASSAY_COMMENT: NCI tumour cell line growth inhibition, 48 h

COC(=O)C1=C(\c2ccccc2)c2ccccc2C(=O)N(C2CCCCC2)/C=C\1	> 100 µM
O=C(Nc1cc[c]([Sb](=[O])([OH])[OH])cc1)c1ccccc1	> 100 µM
CC1(C)CC(n2cnc(-c3ccc(F)cc3)c2-c2ccnc(N)n2)CC(C)(C)N1	> 25 µM
COc1ccc2c(c1)OC1=C(C(=O)OC1)C2c1cc(OC)c(OC)c(OC)c1 (stereo unspecified)	> 100 µM
Fc1ccccc1-c1nn2c(C34CC5CC(CC(C5)C3)C4)nnc2s1	> 100 µM
NC(=O)C(c1ccccc1)N1OC2C(=O)N(c3cccc4ccccc34)C(=O)C2C1c1c2ccccc2c(Cl)c2ccccc12 (stereo unspecified)	14.7 µM
COc1ccc2c(c1)N=C1CSC(c3cccc(Br)c3)N1C2 (stereo unspecified)	31.9 µM
O=C1c2ccccc2C2=Nc3ccncc3CN12	> 100 µM

Recall and state the measured TGI for O=CN1N=C(c2ccc(Cl)cc2)CC1c1cccc(Nc2ccnc3cc(Cl)ccc23)c1 (stereo unspecified) .
7.61 µM

Give TGI for COc1ccc(CNc2c3ccccc3nc3ccc(OC)cc23)cc1
10.1 µM

In one line, give reported TGI of the entry N#Cc1c(Cl)/c(=C/O)c(=O)n2c1nc1ccccc12 .
> 100 µM
